Values from paper PMC4398458

Consider the following compounds and their measured pIC50 readings.
- SYSTEM_TESTED: Myc:Max interaction (Homo sapiens, UniProt P01106)
- Construct: Sino Biologicals (Max)
- Sequence (P01106 whole entry): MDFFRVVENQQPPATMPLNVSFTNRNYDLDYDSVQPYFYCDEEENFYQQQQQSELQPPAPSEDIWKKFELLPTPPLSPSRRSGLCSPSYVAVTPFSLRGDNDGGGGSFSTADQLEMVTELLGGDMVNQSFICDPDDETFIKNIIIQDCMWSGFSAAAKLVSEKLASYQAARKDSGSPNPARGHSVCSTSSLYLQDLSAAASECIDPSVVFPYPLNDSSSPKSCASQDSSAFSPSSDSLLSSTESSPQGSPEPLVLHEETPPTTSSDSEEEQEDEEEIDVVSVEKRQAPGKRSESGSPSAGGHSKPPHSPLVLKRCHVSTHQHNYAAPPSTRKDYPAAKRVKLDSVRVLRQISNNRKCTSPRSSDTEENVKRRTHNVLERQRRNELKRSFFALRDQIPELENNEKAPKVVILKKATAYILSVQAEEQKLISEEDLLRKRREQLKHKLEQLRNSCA
- TEST_SUMMARY: Cell-free Myc:Max ELISA
- RECORDED_CONDITIONS: average with standard deviation; combinations as equimolar (1:1) titrations, concentration of each monomer; read-out: ELISA (IC50), inhibition of cell-free MYC-MAX heterodimer formation
pIC50: −log10 of the molar value.

[
  {
    "SMILES_TEXT": "CCc1ccc(/C=C2\\SC(=O)N(CCNC(=O)[C@@H]3C[C@@H]4C[C@H]3[C@@H](O)[C@H]4O)C2=O)cc1",
    "SYSTEM_TESTED": "Myc:Max interaction (Homo sapiens, UniProt P01106)",
    "pIC50": "< 4.52"
  },
  {
    "SMILES_TEXT": "CCc1ccc(/C=C2\\SC(=O)N(CC[C@@H]3C[C@@H]4C=C[C@H]3C4)C2=O)cc1",
    "SYSTEM_TESTED": "Myc:Max interaction (Homo sapiens, UniProt P01106)",
    "pIC50": "< 4.52"
  },
  {
    "SMILES_TEXT": "O=C(NCc1cccc(B(O)O)c1)c1ccccc1Nc1ccc([N+](=O)[O-])c2nonc12",
    "SYSTEM_TESTED": "Myc:Max interaction (Homo sapiens, UniProt P01106)",
    "pIC50": 4.62
  },
  {
    "SMILES_TEXT": "O=C(NCc1ccc(B(O)O)cc1)c1ccccc1Nc1ccc([N+](=O)[O-])c2nonc12",
    "SYSTEM_TESTED": "Myc:Max interaction (Homo sapiens, UniProt P01106)",
    "pIC50": "< 4.52"
  }
]
